assayed system: T1, human IL13Rα2 (interleukin-13 receptor subunit alpha-2) (human, UniProt Q14627 27-380)
T1 construct: whole, on cells; also called IL13Ra2
T1 sequence (looked up): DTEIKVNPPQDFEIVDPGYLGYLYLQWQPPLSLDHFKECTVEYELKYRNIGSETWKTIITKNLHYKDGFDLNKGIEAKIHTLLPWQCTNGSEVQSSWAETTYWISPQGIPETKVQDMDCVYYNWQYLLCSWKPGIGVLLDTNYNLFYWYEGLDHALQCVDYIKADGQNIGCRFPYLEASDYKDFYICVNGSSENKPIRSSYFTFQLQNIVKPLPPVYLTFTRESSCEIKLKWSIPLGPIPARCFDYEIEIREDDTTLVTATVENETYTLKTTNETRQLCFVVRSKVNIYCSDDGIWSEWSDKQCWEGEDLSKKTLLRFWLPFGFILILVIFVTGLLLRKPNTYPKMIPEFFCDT
test summary: flow cytometry of hybridoma supernatants on IL13Rα2-transfected 300.19 cells; specificity further validated on IL13Rα2-transfected COS cells and U251 cells
assay metric: binding result

Task: Query (binder): 143A murine anti-IL13Rα2 monoclonal antibody (antibody, V domains shown, Tested as hybridoma supernatant; also called IL13Rα2_143A; clone 143A) VH: DVQLVESGGGLVQPGGSRKLSCAASGFTFSSFGMHWVRQAPEKGLEWVAYISSGSSTIYYADTVKGRFIISRDNPKNTLFLQMTSLRSEDTAMYYCARKYEGYAMDYWGQGTSVTVSS VL: DIKMTQSPSSMYASLGERVTITCKASQDINSYLSWFQQKPGKSPKTLIYRANRLVDGVPSRFSGSGSGQDYSLTISSLEYEDMGIYSCLQYDEFPLTFGAGTKLELK ; field requested: binding result
Result: binds
